- SYSTEM: ScFus1
- METHOD_SUMMARY: SPOT peptide array binding signal intensity (averaged, normalized) (arbitrary units (background-subtracted, floor 0; scale differs between SH3 domains)); higher = stronger binding of the SH3 domain to the peptide
MEASURED_PARAMETER: SPOT peptide array binding signal intensity

binder=QPQRTAPKPPISAPR limit_sign=≤ endpoint_result=0
binder=VKPRQLFPIPLNKVD limit_sign== endpoint_result=11
binder=SRQAIPPPVPNRPGG limit_sign=≤ endpoint_result=0
binder=EEEEEHPPLPARRKS limit_sign== endpoint_result=4
binder=RPVPRRPSQPLNTLS limit_sign=≤ endpoint_result=0
binder=FFRRSELYLPNSSKA limit_sign== endpoint_result=206
binder=STPQTMRQAPKRPDA limit_sign== endpoint_result=39
